These entries and their values trace back to patent US20030229005A1.

subjectOfTest: T1, collagenase 1 (UniProt P03956 100-469, limits assumed)
T1 sequence (looked up): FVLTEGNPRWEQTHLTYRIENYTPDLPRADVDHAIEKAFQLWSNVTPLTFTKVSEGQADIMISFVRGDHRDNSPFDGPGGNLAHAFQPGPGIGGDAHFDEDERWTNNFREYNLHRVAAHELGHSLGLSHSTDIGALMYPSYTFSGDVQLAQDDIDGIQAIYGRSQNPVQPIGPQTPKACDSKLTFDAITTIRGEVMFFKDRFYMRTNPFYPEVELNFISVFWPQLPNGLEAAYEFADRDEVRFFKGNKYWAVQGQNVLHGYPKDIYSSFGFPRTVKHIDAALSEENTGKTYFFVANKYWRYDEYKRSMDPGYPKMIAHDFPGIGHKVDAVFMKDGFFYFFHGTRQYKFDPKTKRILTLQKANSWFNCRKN
experiment: cell-based or functional assay
*1 amine or outer side, *2 acyl side, *3 side chain or, on linkers, in order; H or OH if unused. [ ]: non-standard residue; d: D form. The star is where a group is joined. Dnp = O=[N+]([O-])c1ccc(*)c([N+](=O)[O-])c1; C(Me) = CSC[C@H](N[*:1])C(=O)[*:2]
measuredAttribute: Selectivity v. Coll-3 (unitless)

| binder | measuredAttribute | readoutUnits | measValue |
| --- | --- | --- | --- |
| Dnp-GPSELKG-NH2 (SMILES CC(C)C[C@H](NC(=O)[C@H](CCC(=O)O)NC(=O)[C@H](CO)NC(=O)[C@@H]1CCCN1C(=O)CNc1ccc([N+](=O)[O-])cc1[N+](=O)[O-])C(=O)N[C@@H](CCCCN)C(=O)NCC(N)=O) [Dnp-GPSELKG-NH2] | Selectivity v. Coll-3 | unitless | 470 |
| Dnp-GPLPFRG[C(Me)]-NH2 (SMILES CSC[C@H](NC(=O)CNC(=O)[C@H](CCCNC(=N)N)NC(=O)[C@H](Cc1ccccc1)NC(=O)[C@@H]1CCCN1C(=O)[C@H](CC(C)C)NC(=O)[C@@H]1CCCN1C(=O)CNc1ccc([N+](=O)[O-])cc1[N+](=O)[O-])C(N)=O) [Dnp-GPLPFRGC(Me)-NH2] | Selectivity v. Coll-3 | unitless | 429 |
| Dnp-GPSPFRG[C(Me)]-NH2 (SMILES CSC[C@H](NC(=O)CNC(=O)[C@H](CCCNC(=N)N)NC(=O)[C@H](Cc1ccccc1)NC(=O)[C@@H]1CCCN1C(=O)[C@H](CO)NC(=O)[C@@H]1CCCN1C(=O)CNc1ccc([N+](=O)[O-])cc1[N+](=O)[O-])C(N)=O) [Dnp-GPSPFRGC(Me)-NH2] | Selectivity v. Coll-3 | unitless | 2430 |
